Test: in vitro
Conditions: both, human, microsomes, pH 7.4
measure: remaining at 1.5 h

Query block: Please report the recorded remaining at 1.5 h for "O=C(O)c1cc(-c2ccc(/C=C3\SC(=S)N(CCc4ccccc4)C3=O)o2)ccc1Cl" .
Result block: 69.5%

###

Target: CYP2C19 (Homo sapiens)
Sequence (P33261 whole entry): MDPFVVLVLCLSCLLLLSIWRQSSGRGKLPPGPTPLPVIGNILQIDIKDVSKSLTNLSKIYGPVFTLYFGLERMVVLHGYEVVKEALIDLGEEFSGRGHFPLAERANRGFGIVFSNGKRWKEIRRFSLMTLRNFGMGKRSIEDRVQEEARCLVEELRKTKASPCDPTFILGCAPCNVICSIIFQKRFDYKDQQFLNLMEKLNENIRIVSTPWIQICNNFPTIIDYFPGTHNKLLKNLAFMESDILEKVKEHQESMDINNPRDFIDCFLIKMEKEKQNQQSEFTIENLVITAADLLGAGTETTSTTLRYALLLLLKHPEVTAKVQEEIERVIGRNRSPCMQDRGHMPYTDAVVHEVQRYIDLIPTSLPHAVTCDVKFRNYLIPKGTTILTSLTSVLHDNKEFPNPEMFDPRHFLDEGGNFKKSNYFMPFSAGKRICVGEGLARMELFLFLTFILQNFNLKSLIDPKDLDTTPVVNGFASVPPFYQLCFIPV
Test: in vitro
Conditions: microsomes, pH 7.4
measure: activity at 0.0137 µM (%)
Provide the reading as a plain figure in %.

Query block: Item under review: "O=C(O)c1cc(-c2ccc(/C=C3\SC(=S)N(CCc4ccccc4)C3=O)o2)ccc1Cl" . Reported activity at 0.0137 µM?
Result block: 103

###

Experiment: physchem
Conditions: pH 7.4, Solubility, single replicates (R1, R2)
measure: solubility (µM)
Write down the numeric answer in µM and omit the unit.

Query block: If you can, please state the reported solubility value of "O=C(O)c1cc(-c2ccc(/C=C3\SC(=S)N(CCc4ccccc4)C3=O)o2)ccc1Cl" .
Result block: 4.35
